system: ATP; assay: switch fluorescence ratio, 500 uM ATP over buffer (Cy3 cluster intensity, sum of 5 cycles each) (fold (ratio)); higher = stronger signal-on switching upon ATP binding; sequences stand for … in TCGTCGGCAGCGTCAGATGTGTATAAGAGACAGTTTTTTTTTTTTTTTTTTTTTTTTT…TC; conditions: aptamer strand: ATP DNA aptamer (quencher-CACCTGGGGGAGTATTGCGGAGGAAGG + anchor), 100 nM annealed; ATP concentration: 500 uM;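 note: ATP exposure 15 min at 22 °C before imaging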
Reported switch fluorescence ratio values for a set of sequences
MEASUREMENT_TYPE: switch fluorescence ratio

>>> endpoint_result("TTTTGAGCCA")
0.983
>>> endpoint_result("TTAATTATGG")
1
>>> endpoint_result("CGCTTTAATT")
0.989
>>> endpoint_result("TAGCCCTTTT")
0.973
>>> endpoint_result("CGTAATGAAG")
1
>>> endpoint_result("GAAAAATTTT")
1.02
>>> endpoint_result("GTAAGTTGGT")
1
>>> endpoint_result("AAGGGGACGA")
0.978
>>> endpoint_result("AACTTAGTGG")
0.996
>>> endpoint_result("ATTCGCCGGT")
0.959
>>> endpoint_result("CTGTTTCACA")
0.949
>>> endpoint_result("GGGATAAGCC")
1
>>> endpoint_result("TTATAGGTAT")
0.98
>>> endpoint_result("AACGTCTTT")
1.03
>>> endpoint_result("GATATAGTAT")
0.993
>>> endpoint_result("CCACTTGAAA")
1
>>> endpoint_result("TCAACTATAG")
0.999
>>> endpoint_result("CTTAGATTTG")
0.965
>>> endpoint_result("CGCTTAATTG")
1.01
>>> endpoint_result("AGACGTGCGT")
1.01
>>> endpoint_result("TTTTGCTCGT")
1.14
>>> endpoint_result("CATGTGGCGG")
0.995
>>> endpoint_result("GAGTCGGCGC")
0.983
>>> endpoint_result("GGTGGGGAGT")
1.01
>>> endpoint_result("CGCGGTAGTC")
1.1
>>> endpoint_result("ATGGGTGATA")
0.994
>>> endpoint_result("GGCTTGGGAG")
0.982
>>> endpoint_result("AGGTGTTGT")
1.03
>>> endpoint_result("GCCTTAGTGA")
0.996
>>> endpoint_result("AACTGGAGGA")
0.972
>>> endpoint_result("TCCTTTTTTT")
1.01
>>> endpoint_result("GCGTTGTTGT")
0.981
>>> endpoint_result("TACGGGAGCC")
1.01
>>> endpoint_result("GAGGTGTAGA")
1.05
>>> endpoint_result("CGTTCATATG")
0.963
>>> endpoint_result("AGATTCATGT")
0.988
>>> endpoint_result("TTGAGGGTGA")
0.988
>>> endpoint_result("GGGTTCCAGG")
1.26
>>> endpoint_result("CATACAATGC")
2.02
>>> endpoint_result("TGGGAATTAA")
0.979
>>> endpoint_result("TTTTAGGACC")
1
>>> endpoint_result("GGCATTTGGA")
0.98
>>> endpoint_result("TGCTAGGTCA")
0.969
>>> endpoint_result("GTCGGTAAGG")
0.982
>>> endpoint_result("ATGAGTGGGG")
1.01
>>> endpoint_result("TGACAGTTGG")
1.02
>>> endpoint_result("TGATTGGGGA")
1
>>> endpoint_result("CATATATTCT")
0.977
>>> endpoint_result("AGGAGCGGCA")
1.02
>>> endpoint_result("CTTAATTTTG")
0.973

###

test system: ATP; experiment: switch fluorescence ratio, 500 uM ATP over buffer (Cy3 cluster intensity, sum of 5 cycles each) (fold (ratio)); higher = stronger signal-on switching upon ATP binding; sequences stand for … in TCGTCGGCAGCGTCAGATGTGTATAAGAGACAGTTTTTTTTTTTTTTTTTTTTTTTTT…TC; conditions: aptamer strand: ATP DNA aptamer (quencher-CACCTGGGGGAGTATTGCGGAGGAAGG + anchor), 100 nM annealed; ATP concentration: 500 uM;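 note: ATP exposure 15 min at 22 °C before imaging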
Reported switch fluorescence ratio values for a set of sequences
MEASUREMENT_TYPE: switch fluorescence ratio

>>> endpoint_result("TTAAGTGAGG")
1.02
>>> endpoint_result("CCAGGCGCGG")
1.05
>>> endpoint_result("ACATGACAGA")
1.08
>>> endpoint_result("TTTGGTTAC")
1.05
>>> endpoint_result("GTACCGGGCA")
1.02
>>> endpoint_result("CGACGTTCGC")
1.48
>>> endpoint_result("TAATCACCTA")
1.04
>>> endpoint_result("TATAAGGGAG")
0.996

###

test system: ATP; assay: switch fluorescence ratio, 500 uM ATP over buffer (Cy3 cluster intensity, sum of 5 cycles each) (fold (ratio)); higher = stronger signal-on switching upon ATP binding; sequences stand for … in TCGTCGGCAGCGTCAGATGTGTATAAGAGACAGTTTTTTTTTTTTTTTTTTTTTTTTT…TC; conditions: aptamer strand: ATP DNA aptamer (quencher-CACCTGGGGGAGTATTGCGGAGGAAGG + anchor), 100 nM annealed; ATP concentration: 500 uM;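 note: ATP exposure 15 min at 22 °C before imaging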
# label = condition met if switch fluorescence ratio >= 1 else condition not met

>>> class("AGACCGCTTA")
"condition met"
>>> class("AAGAGTAAGC")
"condition not met"
>>> class("ATCACAGGTT")
"condition met"
>>> class("CTTGCACCC")
"condition met"

###

test system: ATP; assay: switch fluorescence ratio, 500 uM ATP over buffer (Cy3 cluster intensity, sum of 5 cycles each) (fold (ratio)); higher = stronger signal-on switching upon ATP binding; sequences stand for … in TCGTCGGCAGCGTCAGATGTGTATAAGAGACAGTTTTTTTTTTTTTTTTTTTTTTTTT…TC; settings: aptamer strand: ATP DNA aptamer (quencher-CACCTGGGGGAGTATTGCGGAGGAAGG + anchor), 100 nM annealed; ATP concentration: 500 uM;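 note: ATP exposure 15 min at 22 °C before imaging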
Reported switch fluorescence ratio values for a set of sequences
MEASUREMENT_TYPE: switch fluorescence ratio

>>> endpoint_result("GTAGGGGCTG")
1
>>> endpoint_result("TAGTGGGTTG")
1
>>> endpoint_result("AGAGCGTTCG")
0.998
>>> endpoint_result("TTTCGGGCGC")
1.05
>>> endpoint_result("CCTGCTCATC")
1.99
>>> endpoint_result("ATGACGCTGG")
1.03
>>> endpoint_result("TAGGATGGGC")
1.04
>>> endpoint_result("ACGGAAACGC")
1.1
>>> endpoint_result("TTAAAAGTGT")
0.999

###

test system: ATP; experiment: switch fluorescence ratio, 500 uM ATP over buffer (Cy3 cluster intensity, sum of 5 cycles each) (fold (ratio)); higher = stronger signal-on switching upon ATP binding; sequences stand for … in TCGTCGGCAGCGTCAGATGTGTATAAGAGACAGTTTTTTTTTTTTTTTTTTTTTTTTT…TC; conditions: aptamer strand: ATP DNA aptamer (quencher-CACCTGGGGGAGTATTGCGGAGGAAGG + anchor), 100 nM annealed; ATP concentration: 500 uM;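 note: ATP exposure 15 min at 22 °C before imaging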
MEASUREMENT_TYPE: switch fluorescence ratio

>>> endpoint_result("CTTGTTAGGA")
1
>>> endpoint_result("TTATCGAATG")
0.965
>>> endpoint_result("AAGTCGGATA")
1
>>> endpoint_result("CTGACCGGAG")
1.24
>>> endpoint_result("GGGGCCACTG")
1.02
>>> endpoint_result("CAGGTTATGG")
0.958
>>> endpoint_result("TTGGTCAAAA")
1.02
>>> endpoint_result("AGATTTATTT")
1
>>> endpoint_result("GTGGTTTGTT")
1.01
>>> endpoint_result("CATACTAACG")
1.33
>>> endpoint_result("TAGACTTTGG")
0.968
>>> endpoint_result("TGCACAAGAT")
1.02
>>> endpoint_result("TTTATTTGCT")
0.981
>>> endpoint_result("TTTGAAGAAA")
1.06
>>> endpoint_result("TAGGATTATA")
0.964
>>> endpoint_result("TGGACTATTA")
1.02
>>> endpoint_result("TTGTTAGTGG")
1.01
>>> endpoint_result("GCTAAACGTG")
0.959
>>> endpoint_result("GAACAACATG")
1.03
>>> endpoint_result("TTTTAAATTG")
0.964
>>> endpoint_result("ACTCGATGTG")
0.989
>>> endpoint_result("AGGAGATAAA")
0.983
>>> endpoint_result("TTTCATAGCA")
1.28
>>> endpoint_result("GTCGTACGTT")
1.06
>>> endpoint_result("TAAAACCAGG")
1.21
>>> endpoint_result("TTACAAGTGT")
0.993
>>> endpoint_result("GGCAAAAATT")
1.01
>>> endpoint_result("TAGTTTCTGG")
0.965
>>> endpoint_result("GGGGTCGGGC")
0.998
